Reported AUC(0-t) values follow for various molecules
assay: Dog single-dose IV and oral pharmacokinetics; type: in vivo; conditions: male, Beagle, dog, plasma; fexinidazole 1 mg/kg IV; read-out: AUC0-t(last)

{"molecule": "CSc1ccc(OCc2ncc([N+](=O)[O-])n2C)cc1", "AUC(0-t) / ng·h/mL": 66.9}
{"molecule": "Cn1c([N+](=O)[O-])cnc1COc1ccc([S+](C)[O-])cc1 (stereo not drawn) [Fexinidazole sulfoxide]", "AUC(0-t) / ng·h/mL": 1480}
{"molecule": "Cn1c([N+](=O)[O-])cnc1COc1ccc(S(C)(=O)=O)cc1", "AUC(0-t) / ng·h/mL": 5270}

----------
assay: Mouse single-dose plasma pharmacokinetics; type: in vivo; settings: female, NMRI, mouse; plasma, fexinidazole 1 mg/kg iv

{"molecule": "CSc1ccc(OCc2ncc([N+](=O)[O-])n2C)cc1", "Tmax": "5 min"}
{"molecule": "Cn1c([N+](=O)[O-])cnc1COc1ccc(S(C)(=O)=O)cc1", "Tmax": "120 min"}
{"molecule": "Cn1c([N+](=O)[O-])cnc1COc1ccc([S+](C)[O-])cc1 (stereo not drawn) [Fexinidazole sulfoxide]", "Tmax": "15 min"}

----------
assay: Rat single-dose IV and oral pharmacokinetics; assay type: in vivo; details: male, Sprague Dawley, plasma, fexinidazole 5 mg/kg IV, read-out: t1/2,z (converted)
observation-type: half-life (h)

{"structure-string": "CSc1ccc(OCc2ncc([N+](=O)[O-])n2C)cc1", "observation-type": "half-life", "value": 1.71}

----------
Reported AUC(0-t) values follow for various molecules
Assay: Rat 28-day toxicokinetics
Assay type: in vivo
Conditions: female, Sprague Dawley (Crl:CD (SD)IGS BR), plasma, po, 50 mg/kg/day, Day 28, female, read-out: AUC0-t(last)
Description: In the rat repeated-dose toxicokinetic study, fexinidazole was administered orally by gavage once a day for 28 consecutive days to ten or fifteen Crl:CD (SD)IGS BR rats/sex/group at doses of 50, 200, or 800 mg/kg/day. […] Systemic exposure to fexinidazole and its sulfoxide and sulfone metabolites was evaluated in three additional animals/sex/group. […] ULOQ Upper limit of quantification […] 24 hours post dosing was calculated and denoted AUC0-24. […]

{"molecule": "CSc1ccc(OCc2ncc([N+](=O)[O-])n2C)cc1", "AUC(0-t) [µg·h/mL]": 1.63}
{"molecule": "Cn1c([N+](=O)[O-])cnc1COc1ccc([S+](C)[O-])cc1 (centres unmarked) [Fexinidazole sulfoxide]", "AUC(0-t) [µg·h/mL]": 78}

----------
assay: in vitro; details: human, Caco-2, pH 7.4

{"structure-string": "CSc1ccc(OCc2ncc([N+](=O)[O-])n2C)cc1", "efflux ratio at 2 h, 5 µM": 0.9}

----------
experiment: Mouse single-dose plasma pharmacokinetics; type: in vivo; conditions: female, NMRI, mouse, plasma, po, 25 mg/kg, plasma, fexinidazole 25 mg/kg po; read-out: AUC0–24
observation-type: AUC(0-t) (ng·h/mL)

{"compound": "Cn1c([N+](=O)[O-])cnc1COc1ccc([S+](C)[O-])cc1 (stereo not drawn) [Fexinidazole sulfoxide]", "u": "ng·h/mL", "value": 45000}
{"compound": "CSc1ccc(OCc2ncc([N+](=O)[O-])n2C)cc1", "u": "ng·h/mL", "value": 424}
{"compound": "Cn1c([N+](=O)[O-])cnc1COc1ccc(S(C)(=O)=O)cc1", "u": "ng·h/mL", "value": 96300}
